Each recorded value in this set is attributed to ChEMBL document CHEMBL1123512.

TARGET SYSTEM: Opioid receptors; mu/kappa/delta (Homo sapiens, UniProt P41145+P41143+P35372)
Sequence (P35372 whole entry, looked up): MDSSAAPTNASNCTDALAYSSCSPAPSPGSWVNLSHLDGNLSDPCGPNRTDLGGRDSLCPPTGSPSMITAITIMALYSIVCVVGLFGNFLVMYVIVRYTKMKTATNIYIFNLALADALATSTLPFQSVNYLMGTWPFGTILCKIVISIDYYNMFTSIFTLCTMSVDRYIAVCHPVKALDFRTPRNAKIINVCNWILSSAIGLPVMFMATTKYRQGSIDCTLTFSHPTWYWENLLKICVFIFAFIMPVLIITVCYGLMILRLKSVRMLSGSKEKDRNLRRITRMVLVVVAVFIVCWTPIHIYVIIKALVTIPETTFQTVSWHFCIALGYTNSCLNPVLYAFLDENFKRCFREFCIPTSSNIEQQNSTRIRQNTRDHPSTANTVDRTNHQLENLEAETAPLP
Sequence (P41143 whole entry, looked up): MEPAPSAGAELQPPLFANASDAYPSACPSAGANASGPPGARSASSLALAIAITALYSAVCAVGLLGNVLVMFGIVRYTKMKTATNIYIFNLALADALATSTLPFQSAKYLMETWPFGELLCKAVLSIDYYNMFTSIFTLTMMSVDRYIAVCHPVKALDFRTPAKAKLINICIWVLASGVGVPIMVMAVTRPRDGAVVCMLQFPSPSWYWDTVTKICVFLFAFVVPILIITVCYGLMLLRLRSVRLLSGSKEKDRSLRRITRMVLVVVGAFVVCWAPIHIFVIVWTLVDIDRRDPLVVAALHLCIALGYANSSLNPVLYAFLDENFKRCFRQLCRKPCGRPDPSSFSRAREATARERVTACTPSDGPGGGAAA
Sequence (P41145 whole entry, looked up): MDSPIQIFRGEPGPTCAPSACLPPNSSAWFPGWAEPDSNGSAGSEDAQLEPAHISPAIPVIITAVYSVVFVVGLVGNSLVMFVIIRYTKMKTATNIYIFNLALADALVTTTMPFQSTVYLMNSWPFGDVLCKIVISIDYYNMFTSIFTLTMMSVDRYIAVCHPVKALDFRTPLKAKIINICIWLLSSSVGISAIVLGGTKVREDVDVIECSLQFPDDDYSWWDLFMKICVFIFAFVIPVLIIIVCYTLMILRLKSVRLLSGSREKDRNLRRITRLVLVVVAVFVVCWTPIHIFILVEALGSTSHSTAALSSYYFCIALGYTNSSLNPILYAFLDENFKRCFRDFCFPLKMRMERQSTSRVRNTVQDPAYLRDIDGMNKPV
TEST DESCRIPTION: Irreversible antagonistic activity against opioid receptor in electrically stimulated longitudinal muscle of guinea pig ileum expressed as IC50 of EK by IC50 of control
Assay type: functional, tissue-based
QUANTITY MEASURED: Ratio
Give a plain numeric answer without units written out.

Please review the entries below; each comes with its answer.
>>> print(df.to_string())
                                   compound  data_value
0  O=C(CN(CCCl)CCCl)N[C@@H]1CC[C@@]2(O)C3Cc4ccc(O)c5c4C2(CCN3CC2CC2)[C@H]1O5 (some centres undefined)        12.3
1  CCOC(=O)/C=C/C(=O)NCC(=O)NCC(=O)NCC(=O)N[C@@H]1CC[C@@]2(O)C3Cc4ccc(O)c5c4C2(CCN3CC2CC2)[C@H]1O5 (some centres undefined)         0.8
2  CCOC(=O)/C=C/C(=O)NCC(=O)NCC(=O)N[C@@H]1CC[C@@]2(O)C3Cc4ccc(O)c5c4C2(CCN3CC2CC2)[C@H]1O5 (some centres undefined)         1.3

What Ratio value was documented for this compound, CCOC(=O)/C=C/C(=O)NCC(=O)N[C@@H]1CC[C@@]2(O)C3Cc4ccc(O)c5c4C2(CCN3CC2CC2)[C@H]1O5 (some centres undefined) ?
2

----------
TARGET SYSTEM: Opioid receptors; mu/kappa/delta (Homo sapiens, UniProt P41145+P41143+P35372)
TEST DESCRIPTION: Irreversible antagonistic activity against opioid receptor in electrically stimulated longitudinal muscle of guinea pig ileum expressed as IC50 of morphine by IC50 of control
Assay type: functional, tissue-based
QUANTITY MEASURED: Ratio
The response must contain the number and no unit.

Some entries whose results are on file:
In [3]: df
Out[3]:
                                   molecule  quantity_measured  data_value
0  CCOC(=O)/C=C/C(=O)NCC(=O)NCC(=O)N[C@@H]1CC[C@@]2(O)C3Cc4ccc(O)c5c4C2(CCN3CC2CC2)[C@H]1O5 (some centres undefined)              Ratio         3.9
1  CCOC(=O)/C=C/C(=O)NCC(=O)N[C@@H]1CC[C@@]2(O)C3Cc4ccc(O)c5c4C2(CCN3CC2CC2)[C@H]1O5 (some centres undefined)              Ratio         0.6
2  O=C(CN(CCCl)CCCl)N[C@@H]1CC[C@@]2(O)C3Cc4ccc(O)c5c4C2(CCN3CC2CC2)[C@H]1O5 (some centres undefined)              Ratio        27.4

// Ratio lookup, key: CCOC(=O)/C=C/C(=O)NCC(=O)NCC(=O)NCC(=O)N[C@@H]1CC[C@@]2(O)C3Cc4ccc(O)c5c4C2(CCN3CC2CC2)[C@H]1O5 (some centres undefined)
1.3
